TARGET ENTITY: (α4)3(β2)2 nAChR (Homo sapiens, UniProt P17787+P43681)
Construct: expressed in transfected cells; host or cells: Xenopus laevis oocytes injected with cRNA, 8:1 α4:β2
Sequence (P43681 27-627, one chain of several): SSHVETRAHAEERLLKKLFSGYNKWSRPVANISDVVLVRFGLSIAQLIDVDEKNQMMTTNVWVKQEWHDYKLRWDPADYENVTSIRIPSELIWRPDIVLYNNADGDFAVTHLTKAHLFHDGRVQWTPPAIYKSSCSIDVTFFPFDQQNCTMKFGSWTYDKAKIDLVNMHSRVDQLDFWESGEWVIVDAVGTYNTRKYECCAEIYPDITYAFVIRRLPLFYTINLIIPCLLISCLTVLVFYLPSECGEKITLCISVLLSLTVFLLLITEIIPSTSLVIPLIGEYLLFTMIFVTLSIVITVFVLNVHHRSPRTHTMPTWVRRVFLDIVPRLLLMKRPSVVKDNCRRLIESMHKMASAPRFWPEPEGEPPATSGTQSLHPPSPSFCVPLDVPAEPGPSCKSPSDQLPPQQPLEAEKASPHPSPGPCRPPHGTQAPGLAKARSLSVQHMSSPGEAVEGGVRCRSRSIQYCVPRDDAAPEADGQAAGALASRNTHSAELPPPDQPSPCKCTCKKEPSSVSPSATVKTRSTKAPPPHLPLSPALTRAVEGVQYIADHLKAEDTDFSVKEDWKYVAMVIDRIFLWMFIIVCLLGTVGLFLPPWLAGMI
PROCEDURE DETAILS: Two-electrode voltage-clamp whole-cell currents, Xenopus oocytes expressing WT (α4)3(β2)2 nAChR
Type: cell-based
CONDITION: agonist alone; read-out: agonist EC50
Reported pEC50 is given for each of the following compounds.
Please note pEC50 is a logarithmic value: minus log10 of concentration in mol/L. Answer with that number alone.

COMPOUND	READOUT NUMBER
O=c1cccc2n1C[C@@H]1CNC[C@H]2C1 [cytisine]	4.96

Proceed to the following item.
// pEC50 value for CCOc1cncc(/C=C/CCNC)c1 [TC-2559] : 6.47

* * *

TARGET ENTITY: (α4)3(β2)2 nAChR (Homo sapiens, UniProt P17787+P43681)
Construct: expressed in transfected cells; host or cells: Xenopus laevis oocytes injected with cRNA, 8:1 α4:β2
PROCEDURE DETAILS: Mechanistic (Monod-Wyman-Changeux two-state model) analysis of current responses, WT (α4)3(β2)2 nAChR
Type: cell-based
CONDITION: KR, equilibrium dissociation constant in the resting receptor, α4:α4 site; WT
PROPERTY MEASURED: Kd (µM)
Your answer is read as µM, so omit the unit and give the number.

// Kd value for O=c1cccc2n1C[C@@H]1CNC[C@H]2C1 : 8.3

* * *

TARGET ENTITY: (α4H116A)3(β2)2 nAChR (Homo sapiens, UniProt P17787+P43681, H142A)
Construct: expressed in transfected cells; host or cells: Xenopus laevis oocytes injected with cRNA, 8:1 α4:β2
Sequence (P43681 27-627 H142A): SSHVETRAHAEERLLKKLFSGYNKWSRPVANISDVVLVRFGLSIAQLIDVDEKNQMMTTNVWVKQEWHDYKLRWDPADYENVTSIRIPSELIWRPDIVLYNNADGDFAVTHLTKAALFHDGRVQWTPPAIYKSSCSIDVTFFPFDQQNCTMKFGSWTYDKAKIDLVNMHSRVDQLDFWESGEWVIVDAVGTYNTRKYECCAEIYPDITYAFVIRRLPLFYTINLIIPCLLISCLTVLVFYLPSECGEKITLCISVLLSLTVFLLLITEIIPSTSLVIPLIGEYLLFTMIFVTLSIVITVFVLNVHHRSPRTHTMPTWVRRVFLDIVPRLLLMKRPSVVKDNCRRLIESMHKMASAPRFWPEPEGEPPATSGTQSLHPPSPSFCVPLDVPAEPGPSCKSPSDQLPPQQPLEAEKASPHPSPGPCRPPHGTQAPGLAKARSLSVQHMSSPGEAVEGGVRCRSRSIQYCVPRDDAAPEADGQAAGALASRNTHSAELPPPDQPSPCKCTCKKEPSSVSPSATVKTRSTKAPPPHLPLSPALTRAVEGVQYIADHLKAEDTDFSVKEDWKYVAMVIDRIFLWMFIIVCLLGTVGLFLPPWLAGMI
Sequence (P17787 26-502): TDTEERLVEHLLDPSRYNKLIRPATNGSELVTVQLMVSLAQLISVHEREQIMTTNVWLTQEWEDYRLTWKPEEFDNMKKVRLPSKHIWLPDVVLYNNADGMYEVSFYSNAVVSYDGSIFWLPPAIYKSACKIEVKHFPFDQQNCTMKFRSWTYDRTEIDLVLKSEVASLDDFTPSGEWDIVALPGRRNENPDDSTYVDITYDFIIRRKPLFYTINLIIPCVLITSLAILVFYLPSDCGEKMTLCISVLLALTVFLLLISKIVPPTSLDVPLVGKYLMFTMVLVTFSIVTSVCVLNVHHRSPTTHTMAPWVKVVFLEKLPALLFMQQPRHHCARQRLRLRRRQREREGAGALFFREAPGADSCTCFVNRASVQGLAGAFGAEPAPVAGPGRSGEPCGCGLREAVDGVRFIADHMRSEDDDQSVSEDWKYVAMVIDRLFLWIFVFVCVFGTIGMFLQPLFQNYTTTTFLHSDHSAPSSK
PROCEDURE DETAILS: Mechanistic (Monod-Wyman-Changeux two-state model) analysis of current responses, (α4H116A)3(β2)2 nAChR
Assay type: cell-based
CONDITION: α4:α4 site; background of activity elicited by TC-2559; read-out: KR,CMPI
PROPERTY MEASURED: Kd (nM)
Your answer is read as nM, so omit the unit and give the number.

// Kd value for Cc1c(-c2cc(-c3ccccc3Cl)no2)cnn1C1CCNCC1 : 230

* * *

TARGET ENTITY: (α4)3(β2)2 nAChR (Homo sapiens, UniProt P17787+P43681)
Construct: expressed in transfected cells; host or cells: Xenopus laevis oocytes injected with cRNA, 8:1 α4:β2
PROCEDURE DETAILS: Two-electrode voltage-clamp whole-cell currents, Xenopus oocytes expressing WT (α4)3(β2)2 nAChR
Format: cell-based
CONDITION: responses induced by 1 μM TC-2559; read-out: potentiation EC50
Reported EC50 is given for each of the following compounds.
Your answer is read as µM, so omit the unit and give the number.

COMPOUND	EC50 / µM
N#Cc1cccc(-c2nc(-c3cccnc3)no2)c1 [NS9283]	1.9

Proceed to the following item.
// EC50 value for Cc1c(-c2cc(-c3ccccc3Cl)no2)cnn1C1CCNCC1 [CMPI] : 0.11

* * *

TARGET ENTITY: (α4)2(β2)3 nAChR (Homo sapiens, UniProt P17787+P43681)
Sequence (P43681 27-627): as the sequence (P43681 27-627 H142A) above, with A116H counted along it
Sequence (P17787 26-502): as the sequence (P17787 26-502) above
PROCEDURE DETAILS: Two-electrode voltage-clamp whole-cell currents, Xenopus oocytes expressing (α4)2(β2)3 nAChR
CONDITION: agonist alone
PROPERTY MEASURED: pEC50
Please note pEC50 is a logarithmic value: minus log10 of concentration in mol/L. Answer with that number alone.

// pEC50 value for CCOc1cncc(/C=C/CCNC)c1 : 6.27
